Biological target: HLA-A*01:01 (Homo sapiens, UniProt P04439, A114D/A174V/A182V/D101N/D185E/E176A/E190D/L180R/Q94H/R68K/S129P/T187R/V100A/V91M/W191G)
Assay: MHC binding assay: UV-ligand exchange, ELISA of stabilized MHC complexes (peptide exchange yield)
Settings: binding to HLA-A*01:01, UV-ligand exchange
ENDPOINT NAME: Peptide exchange

Some substances with known Peptide exchange results, for comparison:
SUBSTANCE: 243 (LTSEDTGAY; listed as Homo sapiens) [compound 243]
RESULT: +++ (>50 = +++)
--
SUBSTANCE: 135 (TFDKQIVLL; listed as Homo sapiens) [compound 135]
RESULT: ++ (>20% = ++)
--
SUBSTANCE: 65 (SSDFDPLVY; listed as Homo sapiens) [compound 65]
RESULT: ++++ (>75% = ++++)
--
SUBSTANCE: 274 (YADIHGDLL; listed as Homo sapiens) [compound 274]
RESULT: +++ (>50 = +++)
--
SUBSTANCE: 166 (YHRICELLSDY; listed as Homo sapiens) [compound 166]
RESULT: ++++ (>75% = ++++)
--
SUBSTANCE: 356 (NSENHILKY; listed as Homo sapiens) [compound 356]
RESULT: ++++ (>75% = ++++)
--
SUBSTANCE: 196 (RLAQYTIERY; listed as Homo sapiens) [compound 196]
RESULT: ++ (>20% = ++)
--
SUBSTANCE: 303 (GFGGLSSQGVYY; listed as Homo sapiens) [compound 303]
RESULT: +++ (>50 = +++)

Q: What value of Peptide exchange has been reported for the following substance? 191 (FTRAFDQLRM; listed as Homo sapiens) [compound 191]
Result: +++ (>50 = +++)

Q: Param item: 61 (SSDIVALGGFLY; listed as Homo sapiens) [compound 61]
Result: +++ (>50 = +++)

Q: Param item: 277 (LPAPGFLFY; listed as Homo sapiens) [compound 277]
Result: ++ (>20% = ++)

Q: Param item: 10 (VSERTGISY; listed as Homo sapiens) [compound 10]
Result: +++ (>50 = +++)

Q: Param item: 112 (KASSVSAEDGY; listed as Homo sapiens) [compound 112]
Result: ++ (>20% = ++)

Q: Param item: 174 (TSEVEGLAFVSY; listed as Homo sapiens) [compound 174]
Result: +++ (>50 = +++)

Q: Param item: 333 (LSDPQAELQFY; listed as Homo sapiens) [compound 333]
Result: ++++ (>75% = ++++)

Q: Param item: 143 (HVSGQMLYF; listed as Homo sapiens) [compound 143]
Result: ++ (>20% = ++)

Q: Param item: 21 (LSSAVNPIIY; listed as Homo sapiens) [compound 21]
Result: ++ (>20% = ++)

Q: Param item: 380 (VACGNNPVY; listed as Homo sapiens) [compound 380]
Result: +++ (>50 = +++)

* * *

Target: HLA-A*01:01 (Homo sapiens, UniProt P04439, A114D/A174V/A182V/D101N/D185E/E176A/E190D/L180R/Q94H/R68K/S129P/T187R/V100A/V91M/W191G)
Experiment: MHC binding assay: UV-ligand exchange, ELISA of stabilized MHC complexes (peptide exchange yield)
Conditions: binding to HLA-A*01:01, UV-ligand exchange
ENDPOINT NAME: Peptide exchange

Some substances with known Peptide exchange results, for comparison:
SUBSTANCE: 352 (YPVVVAESMY; listed as Homo sapiens) [compound 352]
RESULT: ++ (>20% = ++)
--
SUBSTANCE: 396 (LPDPNVQKY; listed as Homo sapiens) [compound 396]
RESULT: ++ (>20% = ++)
--
SUBSTANCE: 249 (GVGFTELEY; listed as Homo sapiens) [compound 249]
RESULT: +++ (>50 = +++)
--
SUBSTANCE: 90 (YEDHFPLLF; listed as Homo sapiens) [compound 90]
RESULT: ++ (>20% = ++)

Q: What value of Peptide exchange has been reported for the following substance? 99 (AADSNPSEL; listed as Homo sapiens) [compound 99]
Result: ++ (>20% = ++)

Q: Param item: 385 (SANALILTY; listed as Homo sapiens) [compound 385]
Result: ++ (>20% = ++)

Q: Param item: 358 (YMSPDIALLY; listed as Homo sapiens) [compound 358]
Result: ++++ (>75% = ++++)

* * *

Target: HLA-A*01:01 (Homo sapiens, UniProt P04439, A114D/A174V/A182V/D101N/D185E/E176A/E190D/L180R/Q94H/R68K/S129P/T187R/V100A/V91M/W191G)
Test: MHC binding assay: UV-ligand exchange, ELISA of stabilized MHC complexes (peptide exchange yield)
Conditions: binding to HLA-A*01:01, UV-ligand exchange
ENDPOINT NAME: Peptide exchange

Some substances with known Peptide exchange results, for comparison:
SUBSTANCE: 280 (TTEMVSNESVDY; listed as Homo sapiens) [compound 280]
Peptide exchange: ++++ (>75% = ++++)
//
SUBSTANCE: 19 (LTEGHSGNY; listed as Homo sapiens) [compound 19]
Peptide exchange: ++++ (>75% = ++++)
//
SUBSTANCE: 254 (FLFNDALLY; listed as Homo sapiens) [compound 254]
Peptide exchange: ++++ (>75% = ++++)
//
SUBSTANCE: 346 (VAGLEAGVLY; listed as Homo sapiens) [compound 346]
Peptide exchange: ++ (>20% = ++)
//
SUBSTANCE: 70 (YTELVEEKY; listed as Homo sapiens) [compound 70]
Peptide exchange: +++ (>50 = +++)

Q: What value of Peptide exchange has been reported for the following substance? 104 (ITDTLIHL; listed as Homo sapiens) [compound 104]
Result: ++ (>20% = ++)

Q: Param item: 318 (YMTSMALNY; listed as Homo sapiens) [compound 318]
Result: +++ (>50 = +++)

Q: Param item: 183 (LADTDLGMTF; listed as Homo sapiens) [compound 183]
Result: ++ (>20% = ++)

Q: Param item: 295 (GQRLDEAMISY; listed as Homo sapiens) [compound 295]
Result: +++ (>50 = +++)

Q: Param item: 186 (AVSSGLFFY; listed as Homo sapiens) [compound 186]
Result: ++ (>20% = ++)
